# PROCEDURE_SUMMARY: Novel Modifiers of Survival Motor Neuron (SMN) Protein: Gene Identification via Genome-wide siRNA Screen;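 further: luminescence tracks full-length SMN protein made from the SMN2 reporter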
# PROTOCOL_CONDITIONS: HEK293T SMN2-luciferase reporter, siRNA knockdown, 72 h; actives lie on both sides
About 1,400 (4.5%) of roughly 31,000 sequences were called active.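 How the source made its calls: active means median seed-adjusted z-score above 1 or below -1; inactive means the rest.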 The sample as a whole holds a higher share of actives than the screen did.
Use one of these outcomes when replying: active, inactive

Before answering, review these 2 worked examples.
CAGUGCUACUUGGAAUGUUTT against RHOJ	inactive
GGACCAUAAUCAAUGUAGATT against ZNF585A	inactive

Task: Outcome? CUCCCUCACCAAAACAAAATT against DUSP26
Output: inactive

Task: Returns: the outcome recorded for GACAAUGGGUUAUUCAGGATT against FNTA in this assay.
Output: active

Task: Recorded call for ACCGCUUCAUGUCUGCGUATT against SF3A2 ?
Output: active

Task: How did this test come out for CAUCCUCAUUUGAAACCGUTT against CREBL1 ?
Output: inactive

Task: What is the recorded call for this sequence in the test? CAGUCAAGCUUGGAGUUAATT against SYTL3
Output: inactive

---

# PROCEDURE_SUMMARY: Novel Modifiers of Survival Motor Neuron (SMN) Protein: Gene Identification via Genome-wide siRNA Screen;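 further: luminescence tracks full-length SMN protein made from the SMN2 reporter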
# PROTOCOL_CONDITIONS: HEK293T SMN2-luciferase reporter, siRNA knockdown, 72 h; actives lie on both sides
In all, about 31,000 sequences went through this assay and about 1,400 (4.5%) were called active.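 The calls were made as follows: active = median seed-adjusted z-score above 1 or below -1; inactive = the rest.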 Shown is part of a subset that was picked to be rich in actives.
# output must be one of active, inactive

As a guide, the following entries are already answered.
GUACCUGCGGGAUUACUCATT against CCT7	inactive
CCCUCGAGCAUGUUCCAAATT against PRPF6	active
GAAUUGACUUCUUGUCUAATT against RAB41	inactive

Task: Could you please tell me the result logged for CAAUCAAAGGGAAACUUGATT against TPT1 in this assay?
Output: inactive

Task: State the result this test recorded for GCGUGUAAAUUCUACUGCATT against RB1 .
Output: inactive

Task: For this sequence, state the assay outcome: GGGAGACGGUAGAAUCAGATT against ATP13A4
Output: active

Task: Tell me the recorded outcome of this test for CGGUCUCACCUGCACCAAATT against SSPO .
Output: inactive

Task: # lookup: test call for CUACCGCAUCAGUAACAGATT against DDX21
Output: inactive

Task: State the result this test recorded for CGUCUAUGCCUAUAAAAUATT against ADORA3 .
Output: inactive

---

# PROCEDURE_SUMMARY: Novel Modifiers of Survival Motor Neuron (SMN) Protein: Gene Identification via Genome-wide siRNA Screen;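 further: luminescence tracks full-length SMN protein made from the SMN2 reporter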
# PROTOCOL_CONDITIONS: HEK293T SMN2-luciferase reporter, siRNA knockdown, 72 h; actives lie on both sides
# Description: Spinal muscular atrophy (SMA) is the most common neuromuscular autosomal recessive disorder and one of the leading genetic causes of infant death. […] Briefly, 1 pmol of each siRNA was spotted to a well of a 384-well plate (Corning, Corning, NY) and 20 microL of serum-free DMEM containing […] of Lipofectamine RNAiMax (Life Technologies, Carlsbad, CA) was then added to each well. […] Raw luminescence reads were normalized to Ambion(R) Silencer(R) Negative Control #2 siRNA, then log10 transformed. […]
In all, about 31,000 sequences went through this assay and about 1,400 (4.5%) were called active.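 The calls were made as follows: active = median seed-adjusted z-score above 1 or below -1; inactive = the rest.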 The entries come from a sample that favours actives as a whole.
Form entry, call: pick from active, inactive

Reference set (5 entries):
AAGUGGGAGUUACAUUAAATT against DLGAP2	inactive
CAACCAACAUUUACAUAUUTT against OPRK1	active
GGAGGUUCAGAAGCACCUATT against PACSIN2	inactive
GGAUCUGACAGUUCCAGAATT against CLDN20	inactive
GCUCCGCAAAUGUGGUUGATT against ZNF714	inactive

Task: Outcome logged for GCUCAGCUCUGGUACUUUATT against GTF2H4 in this assay:
Output: inactive

---

Listed next: entries and their corresponding median seed-adjusted z-score.
# PROCEDURE_SUMMARY: Novel Modifiers of Survival Motor Neuron (SMN) Protein: Gene Identification via Genome-wide siRNA Screen;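 further: luminescence tracks full-length SMN protein made from the SMN2 reporter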
# PROTOCOL_CONDITIONS: HEK293T SMN2-luciferase reporter, siRNA knockdown, 72 h; actives lie on both sides
The whole screen tested about 31,000 sequences, of which about 1,400 (4.5%) were called active. The full list was thinned out, with actives kept by preference.
Answer with a bare number; do not write a unit.

CCUUUUUGCUGGACACUGUTT against PLEKHF1	0.055
CGCUGAAACACGUCCAUUUTT against CHAD	0
CUCUCUAUAUUGAAACCAATT against CHN1	2.1e-05

Task: What median seed-adjusted z-score value was documented for this sequence, GGCUGUCCGACUCAACAUATT against SIGLEC12 ?
Output: 0.226

Task: So what does the record say about median seed-adjusted z-score for ACGUGGAAGUGACCCGGAATT against MTX1 ?
Output: -0.159

Task: If you can, please state the reported median seed-adjusted z-score value of AGAAUAAGUUCAAACAGGATT against RAB4B .
Output: -0.207

---

# PROCEDURE_SUMMARY: Novel Modifiers of Survival Motor Neuron (SMN) Protein: Gene Identification via Genome-wide siRNA Screen;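 further: luminescence tracks full-length SMN protein made from the SMN2 reporter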
# PROTOCOL_CONDITIONS: HEK293T SMN2-luciferase reporter, siRNA knockdown, 72 h; actives lie on both sides
Screen size: about 31,000 sequences; about 1,400 (4.5%) were called active. The entries come from a sample that favours actives as a whole.
RECORDED_METRIC: median seed-adjusted z-score

Solved cases (3 shown):
CGGUGCUGCUAGACGUGAATT against HSPB6	0.394 (inactive)
GGACUGUCAAUCUUAGAUATT against GRK4	-0.267 (inactive)
CUACCGUAACAACCGAAAATT against SCN10A	-0.401 (inactive)

Task: Consider the sequence shown here: GCAGAAUACAAGAGCUUGATT against EID2 What is its recorded median seed-adjusted z-score?
Output: -1.04 (active)

Task: Can you share its median seed-adjusted z-score? I mean this sequence: CACUGUUUAUGUAUAUGGATT against RHOT1
Output: -0.189 (inactive)

Task: Return reported median seed-adjusted z-score; argument: GCAGAGUUUCGUACAAGGATT against KPNA6
Output: -1.54 (active)

Task: // query median seed-adjusted z-score value for entry GGAUGAGUACAGAUUUACATT against CLPX
Output: -0.0436 (inactive)

Task: Name the recorded median seed-adjusted z-score for CAGUGGAUGUUAUUCCUCATT against RNF128 .
Output: -0.377 (inactive)

Task: Consider the sequence AGGUGUUCAUCGGCGUAAATT against GRHL3 and give its measured median seed-adjusted z-score.
Output: -0.0434 (inactive)

---

# PROCEDURE_SUMMARY: Novel Modifiers of Survival Motor Neuron (SMN) Protein: Gene Identification via Genome-wide siRNA Screen;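 further: luminescence tracks full-length SMN protein made from the SMN2 reporter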
# PROTOCOL_CONDITIONS: HEK293T SMN2-luciferase reporter, siRNA knockdown, 72 h; actives lie on both sides
Out of some 31,000 sequences screened, about 1,400 (4.5%) were called active. This is one part of a sample in which actives are shown more often than they occur.
RECORDED_METRIC: median seed-adjusted z-score
Answer using only a numeral; do not append any unit.

GAGUAUCUCUGAAACCUCUTT against IL1A	1.12
GACGAUGAAUGAAAAGGCATT against NRBP1	-1.13

Task: Fill in the blank: the reported median seed-adjusted z-score of CGAAAACUGAUACACUUGATT against KSR2 is ____.
Output: -0.371

Task: Reported median seed-adjusted z-score, sequence GCAGUGACCUUCAAAGUGATT against PTPRN2 : ____
Output: -0.104

Task: Which median seed-adjusted z-score is listed for GGCAAGUAGAUAGUACAUUTT against ZNF507 ?
Output: -0.262

Task: median seed-adjusted z-score lookup needed for CUAUCACCGGAUUAACGAATT against ACOX1 , thanks.
Output: -0.897

Task: I'd like to know its median seed-adjusted z-score. The sequence in question is CCCUCUUCCUUAUCCUGCATT against PITPNM1
Output: -0.203

Task: What value of measured median seed-adjusted z-score is listed for AGGGAGGUGUUUAACGGCATT against HMOX1 ?
Output: 0.45

Task: Request the reported median seed-adjusted z-score associated with CAUUUAGUGUACAUUCAAATT against ZNF665
Output: 1.13

Task: Entry GAAUAGACCUGAAGACAAATT against CFLAR has what median seed-adjusted z-score?
Output: -0.413

Task: Would you kindly share the measured median seed-adjusted z-score for CGGCUUUUAUGGACGAGUUTT against STX3 ?
Output: 0.686

---

# PROCEDURE_SUMMARY: Novel Modifiers of Survival Motor Neuron (SMN) Protein: Gene Identification via Genome-wide siRNA Screen;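 further: luminescence tracks full-length SMN protein made from the SMN2 reporter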
# PROTOCOL_CONDITIONS: HEK293T SMN2-luciferase reporter, siRNA knockdown, 72 h; actives lie on both sides
Hit rate of the full screen: of about 31,000 sequences, about 1,400 (4.5%) were called active.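 How the source made its calls: active means median seed-adjusted z-score above 1 or below -1; inactive means the rest.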 The sample as a whole holds a higher share of actives than the screen did.
# valid calls are active, inactive; nothing else

Record excerpt, results attached:
CAUCCCUUGUAAUUCACAATT against ZNF702	inactive
CUAUCAAUCCCAGCACUAATT against CDKL3	inactive
GUGUGAUUCUUGGAGCAAATT against PLD2	inactive
GCAAUUGAAUAUUGGAGUUTT against MED17	active
GCACCUCUCUGCUAACUGUTT against PGC	inactive
AGAAGACUCUGGUAAUGUATT against WHSC1	active
CAUCCUGCAGAGUAUCUAATT against EPHA5	inactive
GAUGAUUCGUUGGUAUCUATT against GRIA2	active
CGUGUACAAGGCUCUAACATT against EPN3	inactive
GCACUGUGCUUAAGCUGGATT against PKN1	inactive

Task: What outcome does the record of this test show for CCCACCAUGUUACAAGACATT against POLR2G ?
Output: active

Task: // param item: GACGGAAAGACUUACGUUATT against EIF2AK2 ; yields the recorded call
Output: inactive

Task: Per the records of this test, what outcome belongs to GAUACACUUUGUCACCAAATT against FLT3LG ?
Output: inactive

Task: Which outcome was assigned to GGACGGUCGUGAUGGAUAATT against SAFB2 in this test?
Output: inactive

Task: Outcome? GCCCUAGAAAGGUCACUGATT against AKR1CL1
Output: inactive

Task: # lookup: test call for GAUUUGGUUUCGUAACUUUTT against A2BP1
Output: active

Task: Entry GGAGACUUCUUACCCACCATT against PSMD4 : call = ?
Output: active

Task: Recorded call for CCGUGUACGUGGAUGAUGATT against LPHN1 ?
Output: active

Task: Test call, this sequence: CCCUCACCGUGCAUGAGAATT against ZNF74
Output: active

Task: # fetch the recorded call for ACGCAACCCUCAACAGCUCTT against UTS2R here
Output: inactive

Task: Short answer needed: outcome of this test for CAGUUCCAGAUGAACCAUATT against DHDDS ?
Output: inactive

Task: Recorded test call requested for AUAACUACCUGAUCAAGAATT against YWHAG
Output: active

Task: State the result this test recorded for GAGUUACAGCUGAUCAAAATT against VPS26A .
Output: active

Task: Call for entry AAUUUUCCUGUGAUAGAAATT against PATE1 :
Output: active

Task: Please indicate how the test categorized GAAUAUUGCAAUAGACUUATT against ZNF678 .
Output: inactive

Task: Test call for this sequence, please: CCAGCAUGGUUACUACGAATT against TRAIP
Output: inactive

Task: In this assay, the call recorded for GACUACGCCUUGAAGCUAATT against TAF6 was what?
Output: active

Task: GET /call?item= GAAUUGUACCUACUUCUGUTT against PTPLA returns the recorded outcome of this test.
Output: inactive

Task: In this assay, the call recorded for UCACUGAAAUGAAACUGGUTT against ACBD4 was what?
Output: inactive
